# Target of assay: Gal4 DNA binding domain fused to the LBD of LXRα in HEK293 cells (Homo sapiens (Human))
# Sequence (Q13133 209-447): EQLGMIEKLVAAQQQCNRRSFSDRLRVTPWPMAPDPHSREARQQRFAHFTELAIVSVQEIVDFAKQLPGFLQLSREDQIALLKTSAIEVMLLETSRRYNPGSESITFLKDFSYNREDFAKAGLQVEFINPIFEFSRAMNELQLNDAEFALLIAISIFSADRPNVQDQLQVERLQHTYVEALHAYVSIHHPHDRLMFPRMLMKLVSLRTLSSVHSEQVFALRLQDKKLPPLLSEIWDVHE
# Protocol: LXR luciferase transcriptional reporter gene assay, agonist mode, LXRα
# Format: cell-based
# Measurement parameters: read-out: Cell LXRα EC50
Endpoint label: EC50 (nM)
One number for each entry, in nM.

Solved entries:
[
  {
    "Compound": "CS(=O)(=O)c1cc(N2CCN(C[C@H]3CC[C@H](C(F)(F)F)CC3)[C@@H](c3ccccc3)C2)ccc1CO (single isomer, unassigned) [48-45]",
    "EC50 / nM": 431
  },
  {
    "Compound": "CS(=O)(=O)c1cccc(N2CCN(C[C@@H]3C[C@@H]4[C@H](C3)C4(F)F)[C@@H](c3ccccc3)C2)c1 (single isomer, unassigned) [48-66]",
    "EC50 / nM": 2520
  },
  {
    "Compound": "CS(=O)(=O)c1cccc(N2CCN(c3nccc(C(F)(F)F)n3)[C@H](C(F)(F)F)C2)c1 [7-28]",
    "EC50 / nM": 2240
  },
  {
    "Compound": "CC(C)[C@@H]1CN(c2ccc(F)c(S(C)(=O)=O)c2)CCN1c1cncc(C(F)(F)F)c1 [Cpd No 20-1]",
    "EC50 / nM": 678
  }
]

Query compound follows.
I'd like to know its EC50. The compound in question is CC(C)[C@@H]1CN(c2ccc(F)c(S(C)(=O)=O)c2)CCN1c1ccc(C(F)(F)F)cn1 [7-36]
333
